system: T-47D breast; experiment: NCI tumour cell line growth inhibition, 48 h
# TGI per entry

Would you please look over these solved cases?
[[record]]
compound = "C[As](C)Sc1ccnc(S[As](C)C)n1"
meas_value = "> 100 µM"

[[record]]
compound = "CCOC(=O)C1=C(N)Oc2c(sc3c(C)cccc23)C1c1ccc(Cl)cc1 (stereo not given)"
meas_value = "18.8 µM"

[[record]]
compound = "O=C(N1CCOCC1)C1(c2ccccc2)CCNCC1"
meas_value = "> 100 µM"


Report TGI for COc1cc(CNc2nc3ccccc3nc2-c2cccs2)cc(OC)c1OC please.
> 100 µM

// same read-out, input: COc1ccc(-c2nc(N(C)C)c3ccccc3n2)cc1
49.1 µM

Quick one: CN(C)C(=S)N/N=C\C(=N/NC(=S)N(C)C)c1ccccc1
4.77 µM

Try the compound COc1ccc(-n2nnc3c(C#N)c(-c4ccccc4)c(C)n3c2=O)cc1
> 100 µM

Item: c1ccc2c(c1)ccc1ncccc12
> 100 µM

Check O=C(Nc1ccc(Cl)c(Cl)c1)C(=O)C(C1OC(=O)c2ccccc21)[N+](=O)[O-] (stereo not given) too.
> 100 µM

Now consider CCOCCc1c(O)nc(SC)[nH]c1=O and answer again.
> 100 µM

// query: COc1cc(-c2cc(/C=C/C(=O)c3ccc4c(c3)OCO4)[nH]n2)cc(OC)c1OC
17 µM

Param item: O=C(c1ccccc1)c1ccc(Cl)c([N+](=O)[O-])c1
38.6 µM

Record: Nc1ccn([C@H]2CO[C@@H](CO)O2)c(=O)n1
> 100 µM

What would you report for CCN(CC)CCCC(C)NC(=O)c1cc(-c2nccn2C)nc2ccc(C)cc12 (stereo not given) ?
> 100 µM

Also O=C1Nc2ccccc2C1(c1ccc(O)c(F)c1)c1ccc(O)c(F)c1 ?
0.622 µM

Now the same for COc1cc2c(c(N)c1OC)C(=O)/C(=C/c1cc(C)c(O)c(C)c1)C2
> 100 µM

Note, next up: O=C(O)CNC(=O)c1ccccc1O
> 100 µM

Could you do the same for O=S(=O)(O)c1ccc(Cl)cc1.[Cd] , please?
53.8 µM

C[N+](C)(C)CCC(=O)N1C/C(=C\c2ccccc2)C(=O)/C(=C/c2ccccc2)C1 ?
4.41 µM

Entry to check: COc1ccc2c(CC(=O)O)cc(=O)oc2c1
> 100 µM

Param item: COC(=O)c1ccccc1/C=C1\Cc2cc3c(cc2C1=O)CCC3
> 100 µM

Okay, and NC(=O)NC(CC(=O)O)C(=O)O (stereo not given) ?
> 100 µM

What about O=C(/C=C/c1ccccn1)c1ccccc1O ?
8.36 µM

Now the compound CCCn1cc(C2=C(c3cn(C)c4ccccc34)C(=O)NC2=O)c2ccccc21
7.62 µM

What do you have for COc1c(C(=O)/C(=N/Nc2ccccc2)C(C)=O)c(O)c(OC)c2occc12 ?
> 100 µM

====

tested on: NCI-H460 lung; assay: NCI tumour cell line growth inhibition, 48 h
result-type: TGI

Known results for compounds:
[[record]]
compound = "CCCCC(NC(=O)CC)C(=O)O (stereo not drawn)"
meas_value = "> 100 µM"

[[record]]
compound = "CCOC(=O)C1(Cc2ccccc2)Cc2cc3c(cc2C1=O)CCC3 (stereo not drawn)"
meas_value = "> 100 µM"


Next up:
Name the reported TGI value associated with the compound Cc1cc(C)nc(NS(=O)(=O)c2ccc(NC(=O)c3cccc4c(Nc5ccc(S(=O)(=O)Nc6nc(C)cc(C)n6)cc5)c5ccccc5nc34)cc2)n1
> 100 µM
